// provenance: patent US5376679A

- System: Erysiphe graminis f.sp. hordei
- ASSAY_EXPLANATION: Direct antisporulant activity against barley powdery mildew (Eg)
- Assay type: in vivo
- Parameters: scale not given here
- CONDITION_SUMMARY: foliar spray, 1 kg/ha; activity grade 1 or 2, not defined
Below is a list of entries, each paired with its recorded Eg: activity against barley powdery mildew value.
Note: the reply should be a number with no unit written.

Sample records with Eg: activity against barley powdery mildew:
{"COMPOUND": "CC1Oc2c(cc(Cl)cc2[N+]([O-])=NC#N)C1C (stereo not drawn)", "RESULT_NUMBER": 1}
{"COMPOUND": "COC(=O)N=Nc1cccc2c1OC(C)(C)C2", "RESULT_NUMBER": 1}
{"COMPOUND": "COCC1Cc2c(Cl)c(C)cc(N=NC(=O)OC)c2O1 (stereo not drawn)", "RESULT_NUMBER": 2}
{"COMPOUND": "CCOC(=O)N=Nc1cc(C)c(Cl)c2c1OC(C)CC2 (stereo not drawn)", "RESULT_NUMBER": 2}
{"COMPOUND": "COC(=O)N=[N+]([O-])c1cccc2c1OC(C)(C)C2", "RESULT_NUMBER": 2}
{"COMPOUND": "CCc1cc2cccc([N+]([O-])=NC#N)c2o1", "RESULT_NUMBER": 1}
{"COMPOUND": "Cc1cc2c(F)ccc([N+]([O-])=NC#N)c2o1", "RESULT_NUMBER": 2}
{"COMPOUND": "CC1(C)C=Cc2cc(F)cc([N+]([O-])=NC#N)c2O1", "RESULT_NUMBER": 1}
{"COMPOUND": "C#CCOC(=O)N=Nc1ccc(C)c2c1OC(C)CC2 (stereo not drawn)", "RESULT_NUMBER": 1}
{"COMPOUND": "Cc1oc2c([N+]([O-])=NC#N)cccc2c1C", "RESULT_NUMBER": 1}

Can you look up the measured Eg: activity against barley powdery mildew of COC(=O)N=Nc1cc(C)cc2c1OC(C)C2 (stereo not drawn) for me?
1

Can you look up the measured Eg: activity against barley powdery mildew of `N#CN=[N+]([O-])c1cc(Cl)cc2c1OCC=C2` for me?
2

Can you look up the measured Eg: activity against barley powdery mildew of CC1Oc2c(cccc2[N+]([O-])=NC#N)C1C (stereo not drawn) for me?
1

Can you look up the measured Eg: activity against barley powdery mildew of `COC(=O)N=[N+]([O-])c1cc(C)cc2c1OC(C)(C)C2` for me?
2

Can you look up the measured Eg: activity against barley powdery mildew of C#CCOC(=O)N=Nc1cc(C)c(Cl)c2c1OC(C)CC2 (stereo not drawn) for me?
1

Can you look up the measured Eg: activity against barley powdery mildew of `Cc1cc2cc([N+]([O-])=NC#N)ccc2o1` for me?
1

Can you look up the measured Eg: activity against barley powdery mildew of COC(=O)N=[N+]([O-])c1ccc(C)c2c1OC(C)CC2 (stereo not drawn) for me?
2

Can you look up the measured Eg: activity against barley powdery mildew of COC(=O)N=[N+]([O-])c1cc(C)cc2c1OC(C)C2 (stereo not drawn) for me?
2

====

Below is a list of entries, each paired with its recorded MIC value.
- System: Cladosporium resinae
- ASSAY_EXPLANATION: Minimum inhibitory concentration, Cladosporium resinae (Cr)
- Format: cell-based
- CONDITION_SUMMARY: Amorphotheca resinae, 30° C., 3, 7 and 10 days

{"CPD_SMILES": "Cc1cc2c(F)ccc([N+]([O-])=NC#N)c2o1", "RECORDED_METRIC": "MIC", "RESULT": "10 to 25 µg/mL"}
{"CPD_SMILES": "N#CN=[N+]([O-])c1ccc2oc(=O)ccc2c1", "RECORDED_METRIC": "MIC", "RESULT": "25 to 50 µg/mL"}
{"CPD_SMILES": "N#CN=[N+]([O-])c1cc(Cl)cc2c1OCC=C2", "RECORDED_METRIC": "MIC", "RESULT": "25 to 100 µg/mL"}

Now turn to the next compound.
What is its MIC for Cladosporium resinae? Entry: `CC1(C)CCc2cc(Cl)cc([N+]([O-])=NC#N)c2O1`
> 100 µg/mL

====

Below is a list of entries, each paired with its recorded Pr: activity against wheat brown rust value.
- Test system: Puccinia Recondita
- ASSAY_EXPLANATION: Direct protectant activity against wheat brown rust (Pr)
- Assay type: in vivo
- Design: scale not given here
- CONDITION_SUMMARY: foliar spray, 1 kg/ha, 10 days; activity grade 1 or 2, not defined
Note: the reply should be a number with no unit written.

{"MOLECULE": "CCc1cc2cccc([N+]([O-])=NC#N)c2o1", "RESULT_NUMBER": 2}
{"MOLECULE": "N#CN=[N+]([O-])c1cc(Cl)cc2c1OC(CCl)C2 (stereo not shown)", "RESULT_NUMBER": 2}
{"MOLECULE": "N#CN=[N+]([O-])c1ccc2oc3c(c2c1)CCCC3", "RESULT_NUMBER": 1}

Now turn to the next molecule.
Can you look up the measured Pr: activity against wheat brown rust of `N#CN=[N+]([O-])c1ccc2oc(=O)ccc2c1` for me?
2
